- assay.summary: Terminal plasma drug levels (plasma retinoid assay, HPLC)
- Type: in vivo, rat
- run.conditions: female, Sprague-Dawley, rat, plasma, oral; day 22 of treatment; 2 mmol/kg diet; ± SEM; read-out: Plasma retinoid concentration (terminal plasma drug level)
attribute.measured: concentration at 22 day (ng/mL)

>>> experimental_result("CC1=C(/C=C/C(C)=C/C=C/C(C)=C/C(=O)O)C(C)(C)CCC1 [Retinoic acid (2), all-trans retinoic acid]")
300
